System: 317291-083-R-J1-PDC complex spheroids, viability;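 note: spheroids exposed to compounds for one week before readout; percent viability relative to DMSO vehicle wells taken as 100%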
Assay: Anticancer human tumor 317291-083-R-J1-PDC patient-derived soft tissue sarcoma cell line growth inhibition [GQUAD]
Conditions: second compound 0.316 µM; first compound 0.316 µM; active compounds read low
MEASURED ENDPOINT: viability, T/C (%)
Respond with the bare value in %.

COc1ncnc(C2CC2)c1-c1ncc2cnn(Cc3ccc(-c4nc(C(F)(F)F)cn4C(C)C)cc3)c2n1 + CN(C)c1ccc(Nc2c3ccc(NC(=O)CCN4CCCC4)cc3nc3cc(NC(=O)CCN4CCCC4)ccc23)cc1 | 41.9
CC(C)n1c(=O)n(C)c2cnc3cc(F)c(-c4ccc(OCCCN5CCCCC5)nc4)cc3c21 + Cc1[nH]c2ccc(F)cc2c1-c1nc2c3cccnc3c3ncccc3c2[nH]1 | 105

Response field viability, T/C (317291-083-R-J1-PDC complex spheroids, viability) for item CCCS(=O)(=O)Nc1ccc(F)c(C(=O)c2c[nH]c3ncc(-c4ccc(Cl)cc4)cc23)c1F + Cc1[nH]c2ccc(F)cc2c1-c1nc2c3cccnc3c3ncccc3c2[nH]1 : 67.1
